target: UniProtKB P29275; assay: Cellular in vitro reporter gene test for A2b receptor activity (antagonism of NECA); details: recombinant CHO-K1 cells, CRE-luciferase reporter, co-incubation with EC50 concentration of NECA, 3 hours
Sequence (P29275 whole entry): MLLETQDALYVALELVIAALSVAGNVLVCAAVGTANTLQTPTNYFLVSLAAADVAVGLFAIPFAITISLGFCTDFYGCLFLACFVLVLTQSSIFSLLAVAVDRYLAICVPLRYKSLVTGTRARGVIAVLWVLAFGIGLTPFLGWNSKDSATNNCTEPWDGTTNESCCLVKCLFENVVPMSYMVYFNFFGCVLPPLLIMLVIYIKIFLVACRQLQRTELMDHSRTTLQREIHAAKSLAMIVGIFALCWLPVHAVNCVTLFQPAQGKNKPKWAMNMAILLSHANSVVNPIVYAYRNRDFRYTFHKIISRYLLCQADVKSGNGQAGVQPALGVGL
measured.parameter: pIC50
Give bare numbers, as −log10 of the molar value.

Solved cases (3 shown):
Cc1c(CN2CCNC2=O)sc2c1c(=O)n(C1CC1)c(=O)n2C[C@H]1CCCO1 = 7.48
COCCn1c(=O)n(C2(C)CC2)c(=O)c2c(C)c(CN3CCNC3=O)sc21 = 7.82
COCCn1c(=O)n(C2CC2OC)c(=O)c2c(C)c(Cn3nc[nH]c3=O)sc21 (single isomer, unassigned) [Example 311] = 7.36

Now look at this one.
Dear colleague, I am looking for the recorded pIC50 of the following compound: COCCn1c(=O)n(C2(C)CC2)c(=O)c2c(C)c(CN3CCNC(=O)C3=O)sc21
7.54
